Parameter: pIC50. Scope: all listed entries.
Target: potassium channel hERG (Homo sapiens (Human), UniProt Q12809)
Sequence (Q12809 whole entry): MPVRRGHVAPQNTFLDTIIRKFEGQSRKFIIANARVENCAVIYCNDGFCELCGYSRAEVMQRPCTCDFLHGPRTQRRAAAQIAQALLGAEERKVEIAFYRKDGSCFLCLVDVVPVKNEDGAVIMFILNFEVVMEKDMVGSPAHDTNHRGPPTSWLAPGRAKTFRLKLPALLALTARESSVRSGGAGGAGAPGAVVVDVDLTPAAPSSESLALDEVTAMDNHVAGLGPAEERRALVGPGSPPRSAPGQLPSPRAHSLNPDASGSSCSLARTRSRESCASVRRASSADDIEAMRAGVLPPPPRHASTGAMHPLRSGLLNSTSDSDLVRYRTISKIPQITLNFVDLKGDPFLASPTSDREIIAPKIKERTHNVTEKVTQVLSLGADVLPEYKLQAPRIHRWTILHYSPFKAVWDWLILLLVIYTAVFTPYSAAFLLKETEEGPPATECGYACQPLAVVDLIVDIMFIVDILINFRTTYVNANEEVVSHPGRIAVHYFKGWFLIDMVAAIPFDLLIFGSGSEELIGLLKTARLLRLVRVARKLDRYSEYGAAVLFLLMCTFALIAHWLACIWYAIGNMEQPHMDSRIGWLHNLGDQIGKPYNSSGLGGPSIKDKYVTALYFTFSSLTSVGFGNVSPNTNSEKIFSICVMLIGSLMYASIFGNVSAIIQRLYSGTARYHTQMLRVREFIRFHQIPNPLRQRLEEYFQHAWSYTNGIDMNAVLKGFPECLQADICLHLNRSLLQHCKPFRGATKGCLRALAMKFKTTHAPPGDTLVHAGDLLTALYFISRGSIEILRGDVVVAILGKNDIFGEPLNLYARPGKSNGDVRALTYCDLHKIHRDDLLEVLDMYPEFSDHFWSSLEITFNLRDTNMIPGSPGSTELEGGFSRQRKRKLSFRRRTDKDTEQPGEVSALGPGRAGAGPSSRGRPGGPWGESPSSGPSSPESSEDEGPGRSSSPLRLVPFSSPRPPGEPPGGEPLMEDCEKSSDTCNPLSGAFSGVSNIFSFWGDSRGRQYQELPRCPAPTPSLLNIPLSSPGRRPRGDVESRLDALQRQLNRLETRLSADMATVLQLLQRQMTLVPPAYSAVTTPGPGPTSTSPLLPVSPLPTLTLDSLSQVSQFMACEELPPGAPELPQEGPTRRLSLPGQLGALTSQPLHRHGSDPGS
Assay: In vitro testing for hERG inhibition
Assay type: biochemical
Details: in vitro toxicity potassium channel hERG
Method: In vitro testing for hERG inhibition was performed in a standard assay (See: Haverkamp W, Breithardt G, Carnm A J, Janse M J, Rosen M R, Antzelevitch C, Escande D, Franz M, Malik M, Moss A and Shah R. (2000) Eur Heat J 21 (15); 1216-31).
Notebook: values listed as pIC50 are -log10 of the concentration (mol/L).

Some compounds with recorded pIC50:
1) COC[C@@H]1CCCN1[C@@H](C=C(C)C)CC(C)(C)c1ccccc1 [Compound 249] : 5.03
2) CC1(O)CCN(CCC(C)(C)c2ccc(Cl)cc2)CC1 [Compound 192] : 4.72
3) CC(C)=CC(COc1ccc(Cl)cc1)N1CCC(CCO)CC1 (stereo not drawn) [Compound 188] : 6.40
4) CC(C)(CCN1CCC(C2CCOCC2)CC1)c1ccc(C(F)(F)F)cc1 [Compound 1] : 6.13
5) CC(C)=CC(COc1ccc(Cl)cc1)N1CCC(O)CC1 (stereo not drawn) [Compound 186] : 5.64
6) CC(C)(CCN1CCC(O)CC1)c1ccc(C(F)(F)F)cc1 [Example 17] : 4.96

Lookup result for CC(C)=CC(CC(C)(C)c1ccc(Cl)cc1)N1CCN(C(=O)OCC(C)C)CC1 (stereo not drawn) [Compound 198] ; measured pIC50: 5.32

pIC50 in this record for CC(CC(C)(C)c1ccc(Cl)cc1)N1CCC(CO)CC1 (stereo not drawn) [Compound 16] : 6.08

response.value for CCOC1CCN(C(C=C(C)C)CC(C)(C)c2ccc(Cl)cc2)CC1 (stereo not drawn) [Compound 136] (field: pIC50) = 5.68

---

biological target: potassium channel hERG (Homo sapiens (Human), UniProt Q12809); test: In vitro testing for hERG inhibition; assay type: biochemical; details: in vitro toxicity potassium channel hERG
MEASURE_NAME: IC50

Guide cases for IC50, answers given:
1) CC(C)=CC(CC(C)(C)c1ccc(C(F)(F)F)cc1)N1CCOCC1 (centres unmarked) [Compound 72] : 80 µM
2) CC(C)=CC(CC(C)(C)c1ccc(F)cc1)N1CCN(C(=O)OC(C)(C)C)CC1 (centres unmarked) [Compound 47] : 14 µM
3) COCCCC1CCN(CCC(C)(C)c2ccc(C(F)(F)F)cc2)CC1 [Compound 4] : 2.2 µM
4) CC(C)=C[C@@H](CC(C)(C)c1ccc(Cl)cc1)N1CCC[C@@H]1CO [Compound 239] : 4.6 µM

Turning now to a further record.
Entry under test: COCCCC1CCN(C(C=C(C)C)CC(C)(C)c2ccc(OC(C)(C)C)cc2)CC1 (centres unmarked) [Compound 183] . Its IC50 was 2.1 µM

---

target: Sigma-2 receptors on membranes from rat cerebral cortex (Rattus norvegicus (Rat), UniProt Q5U3Y7)
Sequence (Q5U3Y7 whole entry): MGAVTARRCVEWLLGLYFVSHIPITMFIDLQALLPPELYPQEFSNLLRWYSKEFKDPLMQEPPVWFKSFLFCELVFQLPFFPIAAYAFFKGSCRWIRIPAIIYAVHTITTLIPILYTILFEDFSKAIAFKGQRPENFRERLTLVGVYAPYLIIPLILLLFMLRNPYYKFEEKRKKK
MEASURE_NAME: pKi
// pKi here means minus log10 of the molar concentration (mol/L)

1. CC(C)=CC(CC(C)(C)c1ccc(S(C)(=O)=O)cc1)N1CCC2(CCOCC2)CC1 (stereo not shown) : 5.55
2. CC(C)=CC(CC(C)(C)c1ccc(Cl)cc1)N1CCC(c2ccncc2)CC1 (stereo not shown) : 8.00
3. CC(C)=CC(CC(C)(C)c1ccc(F)cc1)N1CCC(C)(O)CC1 (stereo not shown) : 6.64

pKi for CCC(C)(O)CCNC(C)CC(C)(C)c1ccc(C(F)(F)F)cc1 (stereo not shown) is 8.57

Reported pKi of CC(C)=CC(CC(C)(C)c1ccc(Cl)cc1)N1CCC(C)(C)CC1 (stereo not shown) : 7.55

---

Measured log P values are reported for all entries that follow.
experiment: log P; type: physicochemical
# output: bare number, no unit

Before answering, review these 2 worked examples.
1. COCCC1(O)CCN(C(C=C(C)C)CC(C)(C)c2ccc(Cl)cc2)CC1 (stereo not drawn) : 4.51
2. CC(C)=CC(CC(C)(C)c1ccc(F)cc1)N1CCN(S(=O)(=O)N(C)C)CC1 (stereo not drawn) : 3.36

Proceeding to the next molecule to report its log P.
Please fill in: log P reported for COC(=O)C1CCCN1CCC(C)(C)c1ccc(F)cc1 (stereo not drawn) = 3.62

---

test: log P; format: physicochemical
Label scheme for log P: LOW: < 5; MID: ≥ 5 and < 6; HIGH: ≥ 6

1. CC(C)=CC(CC(C)(C)c1ccc(Cl)cc1)N1CCC(c2ccncc2)CC1 (stereo not drawn) : HIGH

Into which category would you place CC(C)=C[C@@H](CC(C)(C)c1ccc(C(F)(F)F)cc1)N1CCC[C@@H]1CO ?
MID

---

target: Sigma-1 receptors on Jurkat cell membranes (Homo sapiens (Human), UniProt Q99720)
Sequence (Q99720 whole entry): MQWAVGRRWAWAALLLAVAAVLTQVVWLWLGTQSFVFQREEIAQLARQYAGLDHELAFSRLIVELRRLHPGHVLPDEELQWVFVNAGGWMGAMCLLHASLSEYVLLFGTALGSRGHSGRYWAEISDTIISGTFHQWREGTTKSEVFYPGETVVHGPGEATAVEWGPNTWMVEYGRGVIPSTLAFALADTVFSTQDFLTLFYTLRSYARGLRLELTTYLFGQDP
Measured pKi of individual entries
A value of pKi is the negative decimal logarithm of a concentration given in moles per litre.

1. CC(CC(C)(C)c1ccc(F)cc1)N1CCC(CO)CC1 (stereo not drawn) : 8.66
2. CC(C)=CC(CC(C)(C)c1ccc(Cl)cc1)N1CCC(F)CC1 (stereo not drawn) : 7.60

CC(CC(C)(C)c1ccc(Cl)cc1)N1CCC(O)CC1 (stereo not drawn) on Sigma-1 receptors on Jurkat cell membranes (Homo sapiens (Human), UniProt Q99720) gives pKi = 9.00

Response field pKi (Sigma-1 receptors on Jurkat cell membranes (Homo sapiens (Human), UniProt Q99720)) for item CC(C)=CC(CC(C)(C)c1ccc(Cl)cc1)N1CCC2(CCOCC2)CC1 (stereo not drawn) : 7.80

Entry CC(CC(C)(C)c1ccc(Cl)cc1)N1CCC(CO)CC1 (stereo not drawn) ; assay system Sigma-1 receptors on Jurkat cell membranes (Homo sapiens (Human), UniProt Q99720); pKi recorded at 9.10

Short answer on Sigma-1 receptors on Jurkat cell membranes (Homo sapiens (Human), UniProt Q99720) for CC(C)=CC(CCc1ccc(F)cc1)N1CCC(C2CCOCC2)CC1 (stereo not drawn) , pKi: 8.10

---

Recorded log P, one value per entry.
test: log P; type: physicochemical
Form field (numeric): enter value without unit.

These solved cases illustrate the format of a correct answer.
1. CC(C)=CC(CC(C)(C)c1ccc(F)cc1)N1CCC(F)CC1 (stereo not drawn) : 5.01
2. COc1cc(CCC(C)(C)N2Cc3cccc(C(=O)N4CCN(C(=O)[C@@H](N)Cc5ccccc5)CC4)c3C2)ccc1O : 4.03
3. COCC1CCCN1C(C=C(C)C)CC(C)(C)c1ccc(Cl)cc1 (stereo not drawn) : 5.68
4. CC(C)=CC(CC(C)(C)c1ccc(OC(C)C)cc1)N1CCC(C)(O)CC1 (stereo not drawn) : 4.87
5. COCCCC1CCN(C(C=C(C)C)CC(C)(C)c2ccc(OC(C)(C)C)cc2)CC1 (stereo not drawn) : 6.79

Form: compound = COC1CCN(CCC(C)(C)c2ccc(Cl)cc2)CC1 ; log P = 3.8

Measured log P, CC(C)=CC(CC(C)(C)c1ccc(Cl)cc1)N1CCC2(CCOCC2)CC1 (stereo not drawn) : 5.87

Form: compound = COc1cc(CCC(C)(C)N2Cc3cccc(C(=O)N4CCN(C(=O)CNC(C)=O)CC4)c3C2)ccc1O ; log P = 1.63

Record COc1ccc(C(C)(C)CC(C=C(C)C)N2CCC3(CCOCC3)CC2)cc1 (stereo not drawn) , field log P: 5.11

log P reading for COC(=O)[C@@H]1CCCN1CCC(C)(C)c1ccccc1 : 3.48

Lab note: COC1CCN(C(C=C(C)C)CC(C)(C)c2ccc(F)cc2)CC1 (stereo not drawn) gave log P of 4.76

Lookup result for CC(C)=CC(CC(C)(C)c1ccc(F)cc1)N1CCC(O)(c2ccccc2)CC1 (stereo not drawn) ; measured log P: 5.76

---

test: log P; type: physicochemical
MEASURE_NAME: log P
Give the value as a plain number.

1) COCCOCCC1CCN(C(C=C(C)C)CC(C)(C)c2ccc(F)cc2)CC1 (stereo not shown) : 5.54
2) CC1(O)CCN(CCC(C)(C)c2ccccc2)CC1 : 2.83
3) CC(C)=CC(CC(C)(C)c1ccc(C)cc1)N1CCC(C(C)C)CC1 (stereo not shown) : 7.04
4) CC(C)=CC(CC(C)(C)c1ccc(C)cc1)N[C@H](C)c1ccccc1 (stereo partly shown) : 6.93

Looking up CC(=O)N1CCN(C(C=C(C)C)CC(C)(C)c2ccc(Cl)cc2)CC1 (stereo not shown) , I found its log P recorded as 4.33

According to the records, this compound CCOC1CCN(C(C=C(C)C)CC(C)(C)c2ccc(F)cc2)CC1 (stereo not shown) displays log P of 5.12

Data point: CC(C)=CC(CC(C)(C)c1ccc(Cl)cc1)N1CCC(c2ccnc(N3CCCC3)c2)CC1 (stereo not shown) ; log P = 7.42

Note to self: log P recorded for CC(C)=CC(NCC1CCOCC1)C(C)(C)Oc1ccccc1 (stereo not shown) was 3.99

Measured log P, CC(C)(CC(c1ccccc1)N1CCOCC1)c1ccc(Cl)cc1 (stereo not shown) : 5.4

Consider COC[C@@H]1CCCN1CCC(C)(C)c1ccc(Cl)cc1 . Its measured log P is 4.26

All values here come from patent US11214540B2.
